Target: F876L mutant Androgen Receptor (AR-F876L) (Homo sapiens, UniProt P10275, F877L)
Construct: expressed in transfected cells; host or cells: LNCaP F876L cells with ARE firefly luciferase lentiviral construct
Sequence (P10275 whole entry F877L): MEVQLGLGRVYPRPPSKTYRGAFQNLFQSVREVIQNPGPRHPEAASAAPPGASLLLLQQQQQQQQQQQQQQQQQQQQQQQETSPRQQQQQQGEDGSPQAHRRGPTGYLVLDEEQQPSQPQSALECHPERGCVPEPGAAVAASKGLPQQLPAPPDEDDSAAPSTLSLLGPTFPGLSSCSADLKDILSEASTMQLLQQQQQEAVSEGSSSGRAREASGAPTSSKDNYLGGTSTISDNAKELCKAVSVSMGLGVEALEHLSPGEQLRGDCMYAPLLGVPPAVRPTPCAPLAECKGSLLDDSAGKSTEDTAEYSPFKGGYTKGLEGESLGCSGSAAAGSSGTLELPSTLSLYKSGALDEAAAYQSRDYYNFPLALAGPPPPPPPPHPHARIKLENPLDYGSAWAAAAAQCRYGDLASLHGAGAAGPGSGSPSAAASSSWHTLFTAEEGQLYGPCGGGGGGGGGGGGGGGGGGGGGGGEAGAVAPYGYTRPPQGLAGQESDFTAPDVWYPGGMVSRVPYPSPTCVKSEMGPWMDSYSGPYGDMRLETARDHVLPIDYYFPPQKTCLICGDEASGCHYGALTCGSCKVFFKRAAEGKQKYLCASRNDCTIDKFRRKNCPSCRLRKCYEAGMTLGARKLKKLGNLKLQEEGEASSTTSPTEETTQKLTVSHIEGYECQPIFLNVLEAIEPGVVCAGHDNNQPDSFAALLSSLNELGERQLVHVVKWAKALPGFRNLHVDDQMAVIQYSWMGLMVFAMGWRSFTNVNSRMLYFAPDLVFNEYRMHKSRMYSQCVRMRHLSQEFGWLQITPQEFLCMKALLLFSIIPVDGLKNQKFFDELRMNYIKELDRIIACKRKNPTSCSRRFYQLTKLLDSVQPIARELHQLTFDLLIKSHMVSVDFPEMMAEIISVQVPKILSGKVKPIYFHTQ
Experiment: LNCaP-AR-F876L AG: ARE luciferase reporter assay, agonist mode
Format: cell-based
Conditions: maximum % stimulation (agonist response), % of 1 μM R-1881 max
This section presents compounds with their documented LNCaP-AR-F876L AG MAX % Stim values.
OUTCOME MEASURE: LNCaP-AR-F876L AG MAX % Stim (%)

N#Cc1ncc(N2C(=O)C3(CCC3)N(c3ccc(OC4CCN(CCO)CC4)cc3)C2=S)cc1C(F)(F)F; 0.2
C#CCNC(=O)c1ccc(N2C(=S)N(c3cnc(C#N)c(C(F)(F)F)c3)C(=O)C23CCC3)cc1F; 2.7
N#Cc1ncc(N2C(=O)C3(CCC3)N(c3ccc(C(=O)NCCCN4CCOCC4)c(F)c3)C2=S)cc1C(F)(F)F; 0.6
